The origin of these recorded values is PubChem BioAssay (NCATS).

System: KB-3-1
Assay text: Cytotoxic Profiling of Annotated Libraries Using Quantitative High-Throughput Screening (AID 1296008); note: % is set by controls: 0 for no effect and ±100 for the full control effect
Condition context: Five cell lines viability, CellTiter-Glo ATP luminescence, 48-72 h; stronger effect = lower value
Results filed as inconclusive are left out.
Measured parameter: max response (%)
One number for each entry, in %.

// known answers, use as guide
C[C@]12CC[C@@H]3c4ccc(OS(=O)(=O)O)cc4CC[C@H]3[C@@H]1CCC2=O
3.98
CCCC(=O)N1CCCN(c2nc(N)c3cc(OC)c(OC)cc3n2)CC1
-12.4
O=C1COc2nccc(-c3ccccc3F)c2CN1Cc1cc(C(F)(F)F)cc(C(F)(F)F)c1
-2.61
CCNc1nc(Nc2cc(F)c(C(=O)N3CCOCC3)cc2OC)ncc1C(F)(F)F
-21.3
Cc1ccc(/C(=C\CN2CCCC2)c2cccc(/C=C/C(=O)O)n2)cc1
-13.8
O=C(NCC(=O)N1CCCC1)Nc1ccc2cnccc2c1
-4.72

Report max response for every entry below.
1. O=C(c1ccc(Cl)cc1)N1CCN(c2ccnc3cc(Cl)ccc23)CC1
2. OC1CCC(Nc2nc(-c3ccccc3)nc3[nH]ccc23)CC1 (stereo not given)

Reply |
1. -24.7
2. 7.97

Report max response for every entry below.
1. O=C1COC2(CCN(S(=O)(=O)c3ccc(-c4ccc5cccnc5c4)cc3)CC2)CN1C1CC1
2. CS(=O)(=O)NC(=O)CCC/C=C\C[C@H]1C(=O)C[C@@H](O)[C@@H]1/C=C/[C@H](O)COc1ccccc1

Reply |
[7.72, -12.3]
